Target: Luciferin 4-monooxygenase (Photinus pyralis) (UniProt P08659)
Sequence (P08659 whole entry, looked up): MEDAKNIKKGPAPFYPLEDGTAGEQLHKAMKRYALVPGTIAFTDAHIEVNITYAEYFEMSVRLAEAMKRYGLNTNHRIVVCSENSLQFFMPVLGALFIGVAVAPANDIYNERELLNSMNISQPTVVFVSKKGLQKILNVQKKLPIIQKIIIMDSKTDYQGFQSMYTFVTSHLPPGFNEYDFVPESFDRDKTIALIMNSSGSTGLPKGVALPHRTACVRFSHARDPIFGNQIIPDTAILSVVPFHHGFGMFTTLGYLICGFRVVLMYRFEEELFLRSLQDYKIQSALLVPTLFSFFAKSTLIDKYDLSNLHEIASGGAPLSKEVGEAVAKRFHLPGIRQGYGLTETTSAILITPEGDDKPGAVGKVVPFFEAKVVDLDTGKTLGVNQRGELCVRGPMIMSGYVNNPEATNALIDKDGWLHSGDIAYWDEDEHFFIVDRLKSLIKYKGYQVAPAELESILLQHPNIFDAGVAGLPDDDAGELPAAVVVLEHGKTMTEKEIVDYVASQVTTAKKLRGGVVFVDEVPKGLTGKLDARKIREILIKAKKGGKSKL
Experiment: qHTS assay to identify small molecule inhibitors of firefly luciferase (AID 1224835); also: nearly all actives have a fitted effect of over 25% in size
Conditions: purified P. pyralis luciferase, luminescence inhibition; series mostly up to 115 µM
Results filed as inconclusive are left out. Activity calls are given as the source filed them. Calls follow the shape of the dose curve; as a rule, active = well fitted inhibition curve with a large enough effect in the repeat runs; inconclusive = weak or mixed curves; inactive = flat fitted curve, though single readings scatter.
// allowed return values: active, inactive

Exercise: For `C[C@H]1[C@H]2CC[C@H]3[C@@H]4CC=C5C[C@@H](N(C)C)CC[C@]5(C)[C@H]4CC[C@]23CN1C` , what call appears in the results of this test?
Key: inactive

Exercise: Query: recorded result category for CC(C)(C)C1CCC(CC2=C(O)c3ccccc3C(=O)C2=O)CC1 (stereo unspecified) in this test
Key: inactive

Exercise: Which outcome was assigned to `CCCCCCCCCCCCCCCCCC[N+](C)(C)C` in this test?
Key: inactive

Exercise: Field: outcome | Entry: `CCCCCCCC[P+](CCCCCCCC)(CCCCCCCC)CCCCCCCC`
Key: active

Exercise: What call does the record list for Cc1oc(-c2ccccc2)nc1CCC(=O)c1ccc(CC2SC(=O)NC2=O)cc1 (stereo unspecified) ?
Key: inactive

Exercise: Hi team, can someone confirm the assay call for `CN(C)[C@@H]1C(=O)C(C(N)=O)=C(O)[C@@]2(O)C(=O)C3=C(O)c4c(O)ccc(Cl)c4[C@@H](O)[C@H]3C[C@@H]12` ?
Key: inactive

Exercise: Hey, what did the test say about `CCOC(=O)c1nc(C(Cl)(Cl)Cl)n(-c2ccc(Cl)cc2Cl)n1` ?
Key: inactive

Exercise: Call for entry `Nc1c2ccccc2nc2ccccc12` :
Key: inactive

Exercise: Each compound tested received a call. Report the one for `S=c1[nH]c2ccccc2s1` .
Key: active

Exercise: Call for entry `O=C(Nc1cccc(C(F)(F)F)c1)c1cc(Br)cc(Br)c1O` :
Key: active

Exercise: Which result was noted for this compound in the test: `CCOC(=O)O[C@H](C)OC(=O)c1ccc2c(c1)cc(C(=O)NC1CCN(C(C)C)CC1)n2Cc1cc(-c2ccc(Cl)s2)on1`
Key: inactive

Exercise: Call for entry `N=C1C=CC(=C(c2ccc(N)cc2)c2ccc(N)cc2)C=C1` :
Key: active

Exercise: In this assay, the call recorded for `CSc1ccc(C(=O)c2[nH]c(=O)[nH]c2C)cc1` was what?
Key: inactive

Exercise: Short answer needed: outcome of this test for `CCCCN(CCCC)C(=O)N(CCCC)CCCC` ?
Key: inactive

Exercise: Write down the call the test reported for this compound. Item: `CCCCN(CCCC)c1ccc(C(=O)c2ccccc2C(=O)O)c(O)c1`
Key: inactive

Exercise: Each compound tested received a call. Report the one for COC(=O)C1=C(C)NC(C)=C(C(=O)OCCc2ccc(N3CCN(C(c4ccccc4)c4ccccc4)CC3)cc2)C1c1cccc([N+](=O)[O-])c1 (stereo unspecified) .
Key: inactive

Exercise: Please share the test call associated with CCCCCCCCNC(C)C(O)c1ccc(SC(C)C)cc1 (stereo unspecified) .
Key: inactive

Exercise: Please indicate how the test categorized `CCc1oc2ccccc2c1C(=O)c1cc(Br)c(O)c(Br)c1` .
Key: inactive

Exercise: Answer briefly: the call reported for `NNc1nc(-c2ccc([N+](=O)[O-])cc2)cs1` in this assay.
Key: active

Exercise: State the result this test recorded for O=C(OCC1CO1)C1CCCCC1C(=O)OCC1CO1 (stereo unspecified) .
Key: inactive

Exercise: Per the assay record, what outcome was assigned to `CS(=O)(=O)CCNCc1ccc(-c2ccc3ncnc(Nc4ccc(OCc5cccc(F)c5)c(Cl)c4)c3c2)o1` ?
Key: inactive

---

Experiment: qHTS assay to identify small molecule agonists of the estrogen receptor beta (ER-beta) signaling pathway - cell viability counter screen (AID 1259380); also: nearly all actives have a fitted effect of over 30% in size
Conditions: ER-beta-bla HEK293T viability, CellTiter-Glo luminescence, 16 h; series mostly up to 92.4 µM
Results filed as inconclusive are left out. The source made the active and inactive calls. Calls follow the shape of the dose curve; as a rule, active = well fitted cell-killing curve with a large enough effect in the repeat runs; inconclusive = weak or mixed curves, or effect the other way; inactive = flat fitted curve, though single readings scatter.
Write down one outcome, taken from active, inactive

Exercise: Short answer needed: outcome of this test for `NNc1nc(-c2ccc(N)cc2)cs1` ?
Key: active

Exercise: Recorded call for `CCCCCCCCCCCCCCCC[N+](C)(C)CCN(Cc1ccc(OC)cc1)c1ncccn1` ?
Key: active

Exercise: For `CC(C)(C)c1ccc(C(=O)O)cc1` , which call appears in the assay record?
Key: inactive

Exercise: Dear colleague, could you share the recorded outcome for `N#CC1(c2ccc(F)cc2)CCC(=O)CC1` when you have a moment?
Key: inactive

Exercise: # fetch the recorded call for `CCN(C(=O)c1cc(C)cc(OC[C@H](C)Nc2ccncc2)c1)C(C)C` here
Key: inactive

Exercise: # fetch the recorded call for `CCCCCCCCOc1ccccc1C(=O)Nc1ccc(C(=O)OCC[N+](C)(CC)CC)cc1` here
Key: active

Exercise: Which outcome did this test record for the compound `CCCCCCCC(=O)[O-].CCCCCCCC(=O)[O-].[Zn+2]` ?
Key: inactive

Exercise: // outcome(item) with item = `C1CCCC1`
Key: inactive

Exercise: Test call for this compound, please: `CN(C/C=C/C#CC(C)(C)C)Cc1cccc2ccccc12`
Key: active

Exercise: Check the results log: what was the call for `O=C1C=CC(=O)N1` ?
Key: active

Exercise: Which outcome was assigned to `CC(C)(C)NC(=O)[C@@H]1C[C@@H]2CCCC[C@@H]2CN1C[C@@H](O)[C@H](Cc1ccccc1)NC(=O)[C@H](CC(N)=O)NC(=O)c1ccc2ccccc2n1` in this test?
Key: active

Exercise: Fill in: this test's call for `O=C1C=CC(=O)N1c1ccc(Cc2ccc(N3C(=O)C=CC3=O)cc2)cc1` is ___
Key: active

Exercise: Please share the test call associated with `CC(C)n1nc(-c2cc3cc(O)ccc3[nH]2)c2c(N)ncnc21` .
Key: active

Exercise: # fetch the recorded call for `CCCCCCCCCCC=O` here
Key: inactive

Exercise: Please state the recorded outcome for this compound: `O=C1CCCCCN1SSN1CCCCCC1=O`
Key: inactive

Exercise: What did this assay record as the result for CCCC(C)c1ccccc1O (configuration not stated) ?
Key: inactive

Exercise: Called result for `CCCCCCCCCCCCc1ccc(O)cc1`
Key: active

Exercise: Could you check what this test reported for `O=C1Cc2cc(CCN3CCN(c4nsc5ccccc45)CC3)c(Cl)cc2N1` ?
Key: active

Exercise: What call does the record list for `COC(=O)c1cc(Cl)ccc1OC` ?
Key: inactive

Exercise: Which outcome was entered for the compound `CCCCCCCCCCCCCCCC(=O)OC[C@H](O)[C@H]1OC(=O)C(O)=C1O` in this test?
Key: active

Exercise: For `Cc1cc(CCN2CCN(c3nsc4ccccc34)CC2)cc2c1NC(=O)CC2(C)C` , what call appears in the results of this test?
Key: active

Exercise: What classification did `O=c1[nH]sc2cc(Cl)ccc12` end up with in this test?
Key: active

---

Experiment: Caspase-3/7 induction in HepG2 cells by small molecules, qHTS assay (AID 1346978); also: nearly all actives have a fitted effect of over 15% in size
Conditions: HepG2 caspase-3/7 activation, Caspase-Glo luminescence, 17 h; series mostly up to 92.4 µM
Records with an inconclusive call do not appear. Active and inactive are the calls of the source. Calls come from the whole dose curve; as a rule, active = well fitted activation curve with a large enough effect in the repeat runs; inconclusive = weak or mixed curves; inactive = flat fitted curve, though single readings scatter.
Respond with a class label; see label 1 (active), label 0 (inactive)

Exercise: Which result was noted for this compound in the test: `O=C(O)c1cc(O)c2c(c1)C(=O)c1cccc(O)c1C2=O`
Key: label 0

Exercise: Short answer needed: outcome of this test for `NC(=O)CC[C@@H]1NC(=O)[C@H](Cc2ccccc2)NC(=O)[C@H](Cc2ccc(O)cc2)NC(=O)CCSSC[C@@H](C(=O)N2CCC[C@H]2C(=O)N[C@@H](CCCN=C(N)N)C(=O)NCC(N)=O)NC(=O)[C@H](CC(N)=O)NC1=O` ?
Key: label 0

Exercise: Which result was noted for this compound in the test: `OC1(c2ccc(Cl)c(C(F)(F)F)c2)CCN(CCCC(c2ccc(F)cc2)c2ccc(F)cc2)CC1`
Key: label 1

Exercise: Entry `CCCCCCCCn1sc(Cl)c(Cl)c1=O` : call = ?
Key: label 0

Exercise: # outcome recorded in this test, key = `NC(=O)NS(=O)(=O)c1ccc(N)cc1`
Key: label 0

Exercise: In this assay, the call recorded for `Oc1cccc(-c2c3nc(c(-c4cccc(O)c4)c4ccc([nH]4)c(-c4cccc(O)c4)c4nc(c(-c5cccc(O)c5)c5ccc2[nH]5)CC4)C=C3)c1` was what?
Key: label 0

Exercise: Per the records of this test, what outcome belongs to `Fc1ccc([C@@H]2CCNC[C@H]2COc2ccc3c(c2)OCO3)cc1` ?
Key: label 0

Exercise: Hi team, can someone confirm the assay call for `CNc1ccc(O)cc1` ?
Key: label 0

Exercise: Lab log entry: `O=CC=C(c1ccccc1)c1ccccc1` — outcome as called in the assay?
Key: label 0
